- test-system: human P2X7 receptor (Homo sapiens (Human), UniProt Q99572, R270H)
- Sequence (Q99572 whole entry R270H): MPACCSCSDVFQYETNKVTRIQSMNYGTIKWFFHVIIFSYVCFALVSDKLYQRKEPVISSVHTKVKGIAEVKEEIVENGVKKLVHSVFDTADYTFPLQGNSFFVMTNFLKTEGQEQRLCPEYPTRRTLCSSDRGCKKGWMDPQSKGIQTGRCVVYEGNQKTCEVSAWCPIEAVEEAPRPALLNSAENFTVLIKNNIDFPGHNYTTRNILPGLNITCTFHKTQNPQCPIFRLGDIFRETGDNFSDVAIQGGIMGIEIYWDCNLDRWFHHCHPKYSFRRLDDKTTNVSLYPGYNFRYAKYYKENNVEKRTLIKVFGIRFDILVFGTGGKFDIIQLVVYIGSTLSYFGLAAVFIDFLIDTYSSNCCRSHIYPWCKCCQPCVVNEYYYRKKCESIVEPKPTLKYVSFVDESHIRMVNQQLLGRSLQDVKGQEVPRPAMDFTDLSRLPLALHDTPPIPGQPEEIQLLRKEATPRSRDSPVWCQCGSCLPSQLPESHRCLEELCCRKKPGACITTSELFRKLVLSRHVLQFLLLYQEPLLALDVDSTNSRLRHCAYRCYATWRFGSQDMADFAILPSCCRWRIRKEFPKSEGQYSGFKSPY
- procedure-text: Evaluation of a human P2X7 receptor inhibitory activity (Yo-Pro uptake, BzATP stimulation, FLIPR TETRA)
- Assay type: cell-based
- assay-context: 1321N1 cells stably expressing human P2X7 receptor, Yo-Pro fluorescence, class symbols
pIC50: −log10 of the molar value.
reported-property: pIC50

Check out these entries, answers already filled in.
molecule: COCCOc1ccc(C)c(NC2=NC(=O)N(C)C3=NCC(Cc4ccccc4)N23)c1 (stereo not shown)
test-system: human P2X7 receptor (Homo sapiens (Human), UniProt Q99572, R270H)
pIC50: 7.00 to 8.00

molecule: COc1ccc(Nc2nc(=O)cc3n2C(c2cc(F)c(F)c(F)c2)CC3)c(C)c1 (stereo not shown)
test-system: human P2X7 receptor (Homo sapiens (Human), UniProt Q99572, R270H)
pIC50: > 8.00

molecule: Cc1ccc(CO)cc1NC1=NC(=O)N(C)C2=NCC(Cc3ccccc3)N12 (stereo not shown)
test-system: human P2X7 receptor (Homo sapiens (Human), UniProt Q99572, R270H)
pIC50: 6.30 to 7.00

molecule: CCc1ccc(CO)cc1NC1=NC(=O)NC2=NCC(c3cc(F)c(F)c(F)c3)N21 (stereo not shown)
test-system: human P2X7 receptor (Homo sapiens (Human), UniProt Q99572, R270H)
pIC50: 7.00 to 8.00

molecule: Cc1c(F)cc(C#N)cc1NC1=NC(=O)N(C)C2=NCC(c3cc(F)c(F)c(F)c3)N12 (stereo not shown)
test-system: human P2X7 receptor (Homo sapiens (Human), UniProt Q99572, R270H)
pIC50: 7.00 to 8.00

molecule: Cc1c(Cl)cccc1Nc1nc(=O)cc2n1C(c1ccccc1)CC2 (stereo not shown)
test-system: human P2X7 receptor (Homo sapiens (Human), UniProt Q99572, R270H)
pIC50: > 8.00

molecule: COc1cc(C)c(NC2=NC(=O)N(C)C3=NCC(c4ccc(F)cc4)N23)cc1OC (stereo not shown)
test-system: human P2X7 receptor (Homo sapiens (Human), UniProt Q99572, R270H)
pIC50: 7.00 to 8.00

molecule: Cc1cc2c(cc1Nc1nc(=O)cc3n1C(c1ccccc1)CC3)COC2 (stereo not shown)
test-system: human P2X7 receptor (Homo sapiens (Human), UniProt Q99572, R270H)
pIC50: 7.00 to 8.00

molecule: COc1ccc([C@@H](C)NC2=NC(=O)N(C)C3=NCC(c4cc(F)c(F)c(F)c4)N23)cc1 (stereo partly shown)
test-system: human P2X7 receptor (Homo sapiens (Human), UniProt Q99572, R270H)
pIC50: 6.30 to 7.00

molecule: Cc1cc(Nc2nc(=O)cc3n2C(c2ccc(F)c(Cl)c2)CC3)c(C)cc1Cl (stereo not shown)
test-system: human P2X7 receptor (Homo sapiens (Human), UniProt Q99572, R270H)
pIC50: > 8.00

Answer for every listed entry: what is its pIC50? The entries follow.
1. COc1ccc(Nc2nc(=O)c(F)c3n2C(c2ccc(F)cc2)CN3C)c(C)n1 (stereo not shown)
2. COc1nc(C)c(Nc2nc(=O)cc3n2C(c2cc(F)cc(F)c2)CC3)cc1C (stereo not shown)
3. COc1nc(C)c(NC2=NC(=O)N(C)C3=NCC(c4cc(F)c(F)c(F)c4)N23)cc1C (stereo not shown)
4. COc1ccc(/N=c2\[nH]c(=O)c(F)c3n2C(c2ccc(F)cc2F)CC3)c(C)n1 (stereo not shown) [Compound I-0068]
5. Cc1c(Cl)cccc1Nc1nc(=O)cc2n1C(c1cccc(Cl)c1)CC2 (stereo not shown)

Data returned:
1. 7.00 to 8.00
2. 7.00 to 8.00
3. 7.00 to 8.00
4. 7.00 to 8.00
5. > 8.00

The recorded pIC50 for entry COc1ccc(/N=c2\[nH]c(=O)c(F)c3n2C(c2cc(F)cc(F)c2)CC3)c(C)n1 (stereo not shown) equals 7.00 to 8.00

====

- test-system: human P2X7 receptor (Homo sapiens (Human), UniProt Q99572, R270H)
- procedure-text: Evaluation of a human P2X7 receptor inhibitory activity (Yo-Pro uptake, BzATP stimulation, FLIPR TETRA)
- Type: cell-based
- assay-context: 1321N1 cells stably expressing human P2X7 receptor, Yo-Pro fluorescence, class symbols
pIC50: −log10 of the molar value.
Assignment: determine reported pIC50 for the given molecules.

# example entries with known answers
molecule: Cc1nc2cc(C)c(Nc3nc(=O)cc4n3[C@H](c3ccccc3)CC4)cc2s1 [Compound I-0029]
test-system: human P2X7 receptor (Homo sapiens (Human), UniProt Q99572, R270H)
pIC50: > 8.00

molecule: COc1cc(Nc2nc(=O)cc3n2C(c2cc(F)cc(F)c2)CN3)c(C)cc1F (stereo not shown) [Compound I-0134]
test-system: human P2X7 receptor (Homo sapiens (Human), UniProt Q99572, R270H)
pIC50: > 8.00

molecule: COc1ccc(Nc2nc(=O)n(C)c3ncn(Cc4ccccc4)c23)c(C)c1 [Compound I-0174]
test-system: human P2X7 receptor (Homo sapiens (Human), UniProt Q99572, R270H)
pIC50: 6.30 to 7.00

molecule: Cc1ccc(C=O)cc1NC1=NC(=O)N(C)C2=NCC(c3cc(F)c(F)c(F)c3)N12 (stereo not shown) [Compound I-0191]
test-system: human P2X7 receptor (Homo sapiens (Human), UniProt Q99572, R270H)
pIC50: 7.00 to 8.00

molecule: COc1ccc(Nc2nc(=O)c(F)c3n2C(c2cc(F)cc(F)c2)CC3)c(C)c1 (stereo not shown) [Compound I-0097]
test-system: human P2X7 receptor (Homo sapiens (Human), UniProt Q99572, R270H)
pIC50: > 8.00

molecule: CN1C(=O)N=C(NCc2ccccc2F)N2C1=NCC2c1cc(F)c(F)c(F)c1 (stereo not shown) [Compound I-0196]
test-system: human P2X7 receptor (Homo sapiens (Human), UniProt Q99572, R270H)
pIC50: 7.00 to 8.00

molecule: COc1ccc(Nc2nc(=O)cc3n2C(c2cc(F)c(F)c(F)c2)CC3)c(C)n1 (stereo not shown) [Compound I-0048]
test-system: human P2X7 receptor (Homo sapiens (Human), UniProt Q99572, R270H)
pIC50: 7.00 to 8.00

molecule: CN1C(=O)N=C(NCc2cccc(F)c2)N2C1=NCC2c1cc(F)c(F)c(F)c1 (stereo not shown) [Compound I-0197]
test-system: human P2X7 receptor (Homo sapiens (Human), UniProt Q99572, R270H)
pIC50: 7.00 to 8.00

I need pIC50 for every entry listed below, if you could help.
1. COc1ccc(NC2=NC(=O)N(C)C3=NCC(c4cc(F)c(F)c(F)c4)N23)c(C)n1 (stereo not shown) [Compound I-0143]
2. COc1cc(NC2=NC(=O)N(C)C3=NCC(c4cc(F)cc(F)c4)N23)c(C)nc1OC (stereo not shown) [Compound I-0133]
3. CCOc1ccc(/N=c2\[nH]c(=O)c(F)c3n2C(c2ccc(F)cc2F)CC3)c(CC)n1 (stereo not shown) [Compound I-0076]
4. COc1ccc(Nc2nc(=O)c(Br)c3n2C(c2cc(F)cc(F)c2)CC3)c(C)n1 (stereo not shown) [Compound I-0086]

Data returned:
1. 7.00 to 8.00
2. 7.00 to 8.00
3. 7.00 to 8.00
4. 7.00 to 8.00

Hi there! I need pIC50 for each item below, if you can.
1. COc1cc(C)c(Nc2nc(=O)cc3n2C(c2ccc(F)c(Cl)c2)CC3)cc1OC (stereo not shown) [Compound I-0013]
2. CCN1C(=O)N=C(Nc2ccc(OC)nc2C)N2C1=NCC2c1ccc(F)cc1 (stereo not shown) [Compound I-0117]
3. COc1ccc(Nc2nc(=O)cc3n2C(c2ccc(F)cc2)CC3)c(C)c1 (stereo not shown) [Compound I-0023]
4. Cc1ccc(Oc2ccccn2)cc1NC1=NC(=O)N(C)C2=NCC(c3cc(F)c(F)c(F)c3)N12 (stereo not shown) [Compound I-0193]
5. Cc1ccc(C#N)cc1NC1=NC(=O)N(C)C2=NCC(c3cc(F)cc(F)c3)N12 (stereo not shown) [Compound I-0146]

Data returned:
["> 8.00", "6.30 to 7.00", "> 8.00", "7.00 to 8.00", "7.00 to 8.00"]

# return pIC50 for each item in the list
1. CN1C(=O)N=C(Nc2cc(C#N)ccc2F)N2C1=NCC2c1cc(F)c(F)c(F)c1 (stereo not shown) [Compound I-0210]
2. COc1nc(C)c(Nc2nc(=O)cc3n2C(c2ccc(F)cc2F)CC3)cc1F (stereo not shown) [Compound I-0084]
3. COc1ccc(Nc2nc(=O)cc3n2C(c2cc(F)cc(F)c2)CC3)c(C)c1 (stereo not shown) [Compound I-0038]
4. Cc1cc2c(cc1/N=c1\[nH]c(=O)c(F)c3n1C(c1ccc(F)cc1)CC3)COC2 (stereo not shown) [Compound I-0074]
5. COc1ccc(C)c(Nc2nc(=O)c(F)c3n2C(c2cc(F)c(F)c(F)c2)CN3)c1 (stereo not shown) [Compound I-0166]

Data returned:
1: 7.00 to 8.00; 2: 7.00 to 8.00; 3: > 8.00; 4: > 8.00; 5: 7.00 to 8.00

Data credit: patent US11066409B2
